Where do these numbers come from? They come from patent US4965280A.

responders at 150 mg/kg for assorted compounds
System: Candida albicans ATCC 11651
test.method.notes: In vivo systemic Candida infection in mice, primary assay
Design: species or system Candida albicans; CF-1 female mice
stated.conditions: Candida albicans, ATCC11651, 336 h, 150 mg/kg per day, day 14; read-out: % Survival
Method: The […] activity of test compounds is based on the percent (%) survival of infected animals receiving test or standard agent compared to that in an infected untreated group (Table 6). […] In a primary assay, mice (10 per group) are infected with C. albicans, and receive test compounds at 50 or 150 mg/kg/day via the subcutaneous route. […] Survival of mice in each group is recorded for 21 days. […]
Quick note: number first, unit second.

Please review the following examples before continuing.
C=C(c1ccccc1)C(O)(Cn1cncn1)c1ccccc1 (centres unmarked)    70%
C=C(c1ccc(OC)cc1)C(O)(Cn1cncn1)c1ccc(F)cc1 (centres unmarked)    80%
C=C(c1cccc(C(F)(F)F)c1)C(O)(Cn1cncn1)c1ccc(F)cc1 (centres unmarked)    90%
C=C(c1ccc(F)cc1)C(O)(Cn1cncn1)c1ccccc1Cl (centres unmarked)    100%
C=CCOC(Cn1cncn1)(C(=C)c1ccc(F)cc1)c1ccc(F)cc1 (centres unmarked)    60%
C=C(c1ccc(Cl)cc1)C(O)(Cn1cncn1)c1ccc(Cl)cc1 (centres unmarked)    100%

Moving on to the next compound.
Query: Form field: responders at 150 mg/kg recorded for "C=C(c1ccccc1)[C@](O)(Cn1cncn1)c1ccc(F)cc1" with Candida albicans ATCC 11651 (enter value)
Response: 70%
